- Target Or Test System: native human MET on living cells (human, UniProt P08581 25-1390)
- Sequence (P08581 25-1390): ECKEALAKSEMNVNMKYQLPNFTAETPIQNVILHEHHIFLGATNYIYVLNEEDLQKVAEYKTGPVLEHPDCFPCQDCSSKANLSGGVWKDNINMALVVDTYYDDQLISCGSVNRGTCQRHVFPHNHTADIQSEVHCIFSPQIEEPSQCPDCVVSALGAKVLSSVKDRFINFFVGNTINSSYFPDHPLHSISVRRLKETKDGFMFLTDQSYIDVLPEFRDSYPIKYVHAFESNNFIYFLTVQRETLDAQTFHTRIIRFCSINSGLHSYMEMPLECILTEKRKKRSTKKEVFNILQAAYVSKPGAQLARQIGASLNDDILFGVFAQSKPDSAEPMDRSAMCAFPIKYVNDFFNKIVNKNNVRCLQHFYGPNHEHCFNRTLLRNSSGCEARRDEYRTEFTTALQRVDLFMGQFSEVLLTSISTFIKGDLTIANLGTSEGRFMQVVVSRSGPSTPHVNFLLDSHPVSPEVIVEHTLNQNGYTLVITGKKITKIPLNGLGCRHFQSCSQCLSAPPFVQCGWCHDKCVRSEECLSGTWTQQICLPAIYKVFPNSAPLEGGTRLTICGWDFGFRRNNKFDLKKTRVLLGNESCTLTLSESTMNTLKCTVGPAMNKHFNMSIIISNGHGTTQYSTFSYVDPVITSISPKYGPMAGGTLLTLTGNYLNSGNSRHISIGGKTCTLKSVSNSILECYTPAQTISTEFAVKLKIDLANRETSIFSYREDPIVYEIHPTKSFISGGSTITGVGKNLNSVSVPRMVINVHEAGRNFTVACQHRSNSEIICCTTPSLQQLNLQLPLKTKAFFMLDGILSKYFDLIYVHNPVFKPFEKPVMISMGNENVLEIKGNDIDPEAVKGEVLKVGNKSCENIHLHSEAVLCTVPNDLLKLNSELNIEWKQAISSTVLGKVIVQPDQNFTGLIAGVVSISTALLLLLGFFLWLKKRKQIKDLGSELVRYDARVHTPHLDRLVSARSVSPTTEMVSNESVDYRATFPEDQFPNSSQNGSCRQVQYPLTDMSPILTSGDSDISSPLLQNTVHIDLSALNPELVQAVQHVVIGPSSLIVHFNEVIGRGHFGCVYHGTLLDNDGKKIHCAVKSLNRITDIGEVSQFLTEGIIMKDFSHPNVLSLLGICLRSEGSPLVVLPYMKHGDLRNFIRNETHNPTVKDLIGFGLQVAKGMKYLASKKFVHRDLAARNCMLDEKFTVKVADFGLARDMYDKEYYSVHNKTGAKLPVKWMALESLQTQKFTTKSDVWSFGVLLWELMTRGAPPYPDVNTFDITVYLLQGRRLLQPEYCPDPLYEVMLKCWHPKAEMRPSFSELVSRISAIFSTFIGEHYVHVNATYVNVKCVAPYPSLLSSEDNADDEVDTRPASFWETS
- Experimental Details: cell-based or functional assay
Metric: protection from staurosporine-induced apoptosis EMAX, MCF10A cells (%)
Just the number in %, nothing appended.

71G3 chimeric llama-human IgG1 mAb (antibody, V domains shown, human IgG1 CH1-CH2-CH3 and human CL lambda; also called 71G3 Human IgG1/lambda) VH: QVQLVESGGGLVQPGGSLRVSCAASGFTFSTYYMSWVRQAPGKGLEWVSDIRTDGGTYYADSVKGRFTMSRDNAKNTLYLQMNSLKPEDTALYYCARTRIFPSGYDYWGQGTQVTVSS VL: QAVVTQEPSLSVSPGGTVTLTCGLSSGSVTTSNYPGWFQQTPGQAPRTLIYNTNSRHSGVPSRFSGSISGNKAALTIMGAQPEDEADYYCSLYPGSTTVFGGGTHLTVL    65.2

stdin: Reported protection from staurosporine-induced apoptosis EMAX, MCF10A cells, binder 76H10 chimeric llama-human IgG1 mAb (antibody, V domains shown, human IgG1 CH1-CH2-CH3 and human CL lambda) VH: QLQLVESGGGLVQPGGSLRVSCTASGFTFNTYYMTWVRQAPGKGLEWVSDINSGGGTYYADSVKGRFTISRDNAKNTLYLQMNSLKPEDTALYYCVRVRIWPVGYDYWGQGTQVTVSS VL: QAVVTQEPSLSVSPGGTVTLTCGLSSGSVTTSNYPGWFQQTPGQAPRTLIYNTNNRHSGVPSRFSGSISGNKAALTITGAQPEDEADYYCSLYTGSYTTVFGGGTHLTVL : ____
stdout: 22.8

stdin: And for 71D4 chimeric llama-human IgG1 mAb (antibody, V domains shown, human IgG1 CH1-CH2-CH3 and human CL lambda) VH: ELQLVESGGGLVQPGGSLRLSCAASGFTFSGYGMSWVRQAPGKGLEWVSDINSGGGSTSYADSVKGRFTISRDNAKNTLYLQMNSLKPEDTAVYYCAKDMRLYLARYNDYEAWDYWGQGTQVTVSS VL: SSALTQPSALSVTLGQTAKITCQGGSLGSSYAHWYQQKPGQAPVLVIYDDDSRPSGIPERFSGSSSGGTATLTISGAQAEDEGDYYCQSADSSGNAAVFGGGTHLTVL ?
stdout: 51.7
